Experiment: Risk categorization of cell culture media ingredients
Conditions: cell culture media ingredient used during meat production
Description: Category 1: These cell culture media components are food ingredients/additives that are GRAS or permitted by federal regulation without limitation on use. […] Category 2: These cell culture media components are common dietary nutrients and are anticipated to have GRAS status for food use or be permitted by regulation for addition to food. […] Majority of nutrients present within the poultry cell-based meat may be readily measured using common validated methods for food composition testing. […]
Experimental Readout: Risk Assessment Category
Answers are plain numbers.

The examples below pair each entry with its known result.
Problem: Tell me measured Risk Assessment Category for O=S(=O)([O-])[O-].[Mg+2] [MAGNESIUM SULFATE (ANHY)] please.
Result: 1

Problem: Tell me measured Risk Assessment Category for Cc1ncc(CO)c(CO)c1O.Cl [PYRIDOXINE-HCL] please.
Result: 1

Problem: Tell me measured Risk Assessment Category for N[C@@H](Cc1ccc([O-])cc1)C(=O)[O-].O.O.[Na+].[Na+] please.
Result: 2

***
Problem: Tell me measured Risk Assessment Category for N[C@@H](Cc1ccccc1)C(=O)O please.
Result: 2

====

Test: Risk categorization of cell culture media ingredients
Give measured Risk Assessment Category for each item. Keep answers brief.

The examples below pair each entry with its known result.
Problem: Tell me measured Risk Assessment Category for CCCCC/C=C\C/C=C\CCCCCCCC(=O)O please.
Result: 2

Problem: Tell me measured Risk Assessment Category for C[N+](C)(C)CCO.[Cl-] [CHOLINE CHLORIDE] please.
Result: 1

Problem: Tell me measured Risk Assessment Category for Cl.Cl.N[C@@H](CSSC[C@H](N)C(=O)O)C(=O)O [L-CYSTINE 2HCL] please.
Result: 2

Problem: Tell me measured Risk Assessment Category for Cc1ncc(CO)c(C=O)c1O.Cl [PYRIDOXAL-HCL] please.
Result: 1

Problem: Tell me measured Risk Assessment Category for N[C@@H](CO)C(=O)O please.
Result: 2

Problem: Tell me measured Risk Assessment Category for C[C@@H](O)[C@H](N)C(=O)O please.
Result: 2

Give Risk Assessment Category for each listed item.
1. CC(C)[C@H](N)C(=O)O
2. O.O.O.O.O.O.O.O=S(=O)([O-])[O-].[Zn+2] [ZINC SULFATE-7H20]
3. NC(=O)C[C@H](N)C(=O)O.O
4. Nc1nc2ncc(CNc3ccc(C(=O)N[C@@H](CCC(=O)O)C(=O)O)cc3)nc2c(=O)[nH]1
5. NC(=O)c1cccnc1 [NIACINAMIDE (NICOTINAMIDE), NIACINAMIDE]

Result:
1. 2
2. 1
3. 2
4. 1
5. 1

====

Test: Risk categorization of cell culture media ingredients
Structures can show the parent of a compound that is named as a salt.
Experimental Readout: Risk Assessment Category
Give bare numbers.

The examples below pair each entry with its known result.
Problem: Tell me measured Risk Assessment Category for C=C1CC[C@H](O)C/C1=C/C=C1\CCC[C@]2(C)[C@@H]([C@H](C)/C=C/[C@H](C)C(C)C)CC[C@@H]12 [VITAMIN D2 (ERGOCALCIFEROL), ERGOCALCIFEROL] please.
Result: 1

Problem: Tell me measured Risk Assessment Category for N[C@@H](Cc1c[nH]c2ccccc12)C(=O)O please.
Result: 2

Problem: Tell me measured Risk Assessment Category for N[C@@H](CCC(=O)N[C@@H](CS)C(=O)NCC(=O)O)C(=O)O please.
Result: 2

***
Problem: Tell me measured Risk Assessment Category for Cc1ncc(C[n+]2csc(CCO)c2C)c(N)n1 [THIAMINE-HCL] please.
Result: 1

====

Give measured Risk Assessment Category for each item. Keep answers brief.
Test: Risk categorization of cell culture media ingredients
Conditions: cell culture media ingredient used during meat production
Give bare numbers.

The examples below pair each entry with its known result.
Problem: Tell me measured Risk Assessment Category for [Cl-].[K+] [POTASSIUM CHLORIDE] please.
Result: 1

Problem: Tell me measured Risk Assessment Category for O.O=P([O-])(O)O.[Na+] [SODIUM PHOSPHATE MONOBASIC H20] please.
Result: 1

Problem: Tell me measured Risk Assessment Category for CC(=O)Oc1c(C)c(C)c2c(c1C)CCC(C)(CCCC(C)CCCC(C)CCCC(C)C)O2 (racemic) [DL-ALPHA-TOCOPHEROL ACETATE] please.
Result: 1

Problem: Tell me measured Risk Assessment Category for O=[Se]([O-])[O-].[Na+].[Na+] [SODIUM SELENITE (ANHY)] please.
Result: 2

Problem: Tell me measured Risk Assessment Category for Cl.N[C@@H](Cc1cnc[nH]1)C(=O)O.O [L-HISTIDINE-HCL-H20] please.
Result: 2

Give Risk Assessment Category for each listed item.
1. O.O.O.O.O.O.O=C([O-])CCC(=O)[O-].[Na+].[Na+] [SODIUM SUCCINATE-2Na 6H20]
2. O.O=S(=O)([O-])[O-].[Mn+2] [MANGANESE SULFATE H2O]
3. Cl.N[C@@H](CS)C(=O)O.O [L-CYSTEINE HCL H20]
4. [Ca+2].[Cl-].[Cl-] [CALCIUM CHLORIDE (ANHY)]

Result:
1: 2; 2: 1; 3: 2; 4: 1

====

Assay: Maximum estimated dietary exposure to media ingredients per 100 g serving
Details: assumption of complete transfer of media components to the finished product on a wt/wt basis
# thresholds on Maximum Estimated Exposure per 100 g serving define classes: low interval: < 1 mg; middle interval: ≥ 1 mg and < 400 mg; high interval: ≥ 400 mg

Some solved cases for reference:
Problem: Each compound maps to one class by Maximum Estimated Exposure per 100 g serving. Which class for O=S(=O)([O-])[O-].[Mg+2] [MAGNESIUM SULFATE (ANHY)] ?
Result: high interval

Problem: Each compound maps to one class by Maximum Estimated Exposure per 100 g serving. Which class for NCCO ?
Result: middle interval

Problem: Each compound maps to one class by Maximum Estimated Exposure per 100 g serving. Which class for C=C1CC[C@H](O)C/C1=C/C=C1\CCC[C@]2(C)[C@@H]([C@H](C)/C=C/[C@H](C)C(C)C)CC[C@@H]12 [VITAMIN D2 (ERGOCALCIFEROL), ERGOCALCIFEROL] ?
Result: low interval

Now take the following compound into account.
Problem: Each compound maps to one class by Maximum Estimated Exposure per 100 g serving. Which class for CCCCCCCC/C=C\CCCCCCCC(=O)OCCOCC(OCCO)C1OCC(OCCO)C1OCCO (stereo not drawn) ?
Result: middle interval

====

Assay: Risk categorization of cell culture media ingredients
Settings: cell culture media ingredient used during meat production
Description: Category 1: These cell culture media components are food ingredients/additives that are GRAS or permitted by federal regulation without limitation on use. […] Category 2: These cell culture media components are common dietary nutrients and are anticipated to have GRAS status for food use or be permitted by regulation for addition to food. […] Majority of nutrients present within the poultry cell-based meat may be readily measured using common validated methods for food composition testing. […]
Experimental Readout: Risk Assessment Category

The examples below pair each entry with its known result.
Problem: Tell me measured Risk Assessment Category for CCCCCCCC/C=C\CCCCCCCC(=O)OCCOCC(OCCO)C1OCC(OCCO)C1OCCO (centres unmarked) please.
Result: 2

Problem: Tell me measured Risk Assessment Category for [Cl-].[Cl-].[Mg+2] [MAGNESIUM CHLORIDE (ANHY)] please.
Result: 1

Problem: Tell me measured Risk Assessment Category for Cl.NCCCC[C@H](N)C(=O)O [L-LYSINE-HCL] please.
Result: 2

Problem: Tell me measured Risk Assessment Category for Cc1c(C)c2c(c(C)c1O)CC[C@@](C)(CCC[C@H](C)CCC[C@H](C)CCCC(C)C)O2 please.
Result: 1

// next item, Risk Assessment Category requested
Problem: Tell me measured Risk Assessment Category for CC(=O)C(=O)[O-].[Na+] [SODIUM PYRUVATE] please.
Result: 3

====

Give measured Risk Assessment Category for each item. Keep answers brief.
Test: Risk categorization of cell culture media ingredients

The examples below pair each entry with its known result.
Problem: Tell me measured Risk Assessment Category for O.O.O.O.O.O.O.O=S(=O)([O-])[O-].[Fe+2] [FERROUS SULFATE-7H2O] please.
Result: 2

Problem: Tell me measured Risk Assessment Category for O=C(O)CCCC[C@@H]1SC[C@@H]2NC(=O)N[C@@H]21 please.
Result: 1

Problem: Tell me measured Risk Assessment Category for O=C[C@H](O)[C@@H](O)[C@H](O)[C@H](O)CO please.
Result: 1

Problem: Tell me measured Risk Assessment Category for C[C@H](N)C(=O)O please.
Result: 2

Problem: Tell me measured Risk Assessment Category for O=C1O[C@H]([C@@H](O)CO)C(O)=C1O please.
Result: 1

Problem: Tell me measured Risk Assessment Category for O[C@H]1[C@H](O)[C@@H](O)[C@H](O)[C@@H](O)[C@H]1O please.
Result: 1

Problem: Tell me measured Risk Assessment Category for O.O.O.O.O.O.O.O.O.O=[Si]([O-])[O-].[Na+].[Na+] [SODIUM METASILICATE-9H2O] please.
Result: 1

Problem: Tell me measured Risk Assessment Category for NCCO please.
Result: 2

Give Risk Assessment Category for each listed item.
1. CSCC[C@H](N)C(=O)O
2. CC[C@H](C)[C@H](N)C(=O)O

Result:
1: 2; 2: 2
